All figures here come from ChEMBL document CHEMBL1143036.

Below, each of the compounds is paired with its reported Activity value.
Test system: RAW264.7
Assay: Effect on iPGE2 level in LPS-induced mouse RAW264.7 cells at 10 uM by ELISA
Format: functional
Report only the number, with the unit pg/mL understood.

Please review the entries below; each comes with its answer.
1. CCCCC/C=C\C/C=C\C/C=C\C/C=C\CCCC(=O)N[C@H](C)C(=O)O 269
2. CCCCCCCCCCCCCCCC(=O)NCC(=O)O 128
3. CCCCC/C=C\C/C=C\C/C=C\C/C=C\CCCC(=O)NCC(=O)O 425
4. CCCCC/C=C\C/C=C\C/C=C\CCCCC(=O)NCC(=O)O 289
5. COc1ccc2cc([C@H](C)C(=O)O)ccc2c1 75

// next entry
-- ask Consider the compound `CCCCC/C=C\C/C=C\C/C=C\C/C=C\CCCC(=O)N[C@@H](C)C(=O)O` . State its measured Activity.
-- reply 652
